Numbers sourced from the supplement of paper PMC9112550.

- System: Escherichia coli TOP10;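 further: peptides expressed intracellularly from a pBAD plasmid library in pooled LB shake-flask culture, induced with 0.3% L-arabinose, DNA abundance read by NGS, three biological replicates, DESeq2 with apeglm shrinkage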
- Assay procedure: shrunken log2 fold change of peptide-encoding DNA abundance (4.5 h post-induction vs induction); higher = less antimicrobial activity (less host growth inhibition)
- Run parameters: time post-induction: 4.5 h; library: site-saturation at positions 5, 18, 19, 20
Classify as follows. Reported shrunken log2 fold change greater than or equal to -0.09: t. Reported shrunken log2 fold change below: f.

1. RRIRPRPPRLPRPRPRPDKIPRP f
2. RRIRNRPPRLPRPRPRPYWVPRP f
3. RRIRGRPPRLPRPRPRPFALPRP t
4. RRIRFRPPRLPRPRPRPWVCPRP t
5. RRIRMRPPRLPRPRPRPTHIPRP f
6. RRIRHRPPRLPRPRPRPEGQPRP f
7. RRIRLRPPRLPRPRPRPFPCPRP t
8. RRIRQRPPRLPRPRPRPWVYPRP f
9. RRIRRRPPRLPRPRPRPQTYPRP t
10. RRIRTRPPRLPRPRPRPWDTPRP f
11. RRIRERPPRLPRPRPRPSIYPRP f
12. RRIRTRPPRLPRPRPRPGLVPRP t
13. RRIRGRPPRLPRPRPRPFSLPRP f
14. RRIRVRPPRLPRPRPRPCTTPRP t
15. RRIRRRPPRLPRPRPRPREWPRP t
16. RRIRYRPPRLPRPRPRPSNEPRP f
17. RRIRKRPPRLPRPRPRPCFNPRP t
18. RRIRWRPPRLPRPRPRPLKKPRP t
19. RRIRKRPPRLPRPRPRPQNVPRP t
20. RRIRFRPPRLPRPRPRPYALPRP t
21. RRIRNRPPRLPRPRPRPERHPRP t
22. RRIRYRPPRLPRPRPRPHTDPRP f
23. RRIRIRPPRLPRPRPRPPKPPRP t
24. RRIRLRPPRLPRPRPRPIEQPRP t
25. RRIRQRPPRLPRPRPRPDFHPRP t
26. RRIRSRPPRLPRPRPRPPMPPRP t
27. RRIRQRPPRLPRPRPRPFTSPRP t
28. RRIRWRPPRLPRPRPRPACSPRP t
29. RRIRMRPPRLPRPRPRPGSQPRP t
30. RRIRWRPPRLPRPRPRPSTLPRP f
31. RRIRIRPPRLPRPRPRPEIRPRP t
32. RRIRARPPRLPRPRPRPLSMPRP f
33. RRIRLRPPRLPRPRPRPDCMPRP t
34. RRIRQRPPRLPRPRPRPDSYPRP f
35. RRIRIRPPRLPRPRPRPNYWPRP f
36. RRIRRRPPRLPRPRPRPRVGPRP t
37. RRIRWRPPRLPRPRPRPEQLPRP t
38. RRIRTRPPRLPRPRPRPPEMPRP t
39. RRIRRRPPRLPRPRPRPNTNPRP f
40. RRIRRRPPRLPRPRPRPFPIPRP t
41. RRIRHRPPRLPRPRPRPTTCPRP f
42. RRIRRRPPRLPRPRPRPHITPRP f
43. RRIRTRPPRLPRPRPRPNWLPRP t
44. RRIRLRPPRLPRPRPRPSNVPRP f
45. RRIRNRPPRLPRPRPRPMYQPRP f
46. RRIRWRPPRLPRPRPRPQWSPRP f
47. RRIRPRPPRLPRPRPRPSFFPRP t
48. RRIRMRPPRLPRPRPRPDPEPRP t
49. RRIRFRPPRLPRPRPRPYEKPRP t
50. RRIRRRPPRLPRPRPRPKFNPRP t
51. RRIRERPPRLPRPRPRPEHFPRP t
52. RRIRVRPPRLPRPRPRPSKQPRP f
53. RRIRKRPPRLPRPRPRPNPGPRP t
54. RRIRFRPPRLPRPRPRPSHHPRP f
55. RRIRRRPPRLPRPRPRPQQRPRP t
56. RRIRQRPPRLPRPRPRPIIGPRP f
57. RRIRVRPPRLPRPRPRPKNMPRP f
58. RRIRRRPPRLPRPRPRPHWSPRP t
59. RRIRCRPPRLPRPRPRPWETPRP t
60. RRIRWRPPRLPRPRPRPNTPPRP t
61. RRIRIRPPRLPRPRPRPWNRPRP t
62. RRIRGRPPRLPRPRPRPFIRPRP f
